Give measured IC50 for each item. Keep answers brief.
- STUDY SYSTEM: 5HT1A receptors (Rattus norvegicus, UniProt P19327)
- Construct: synaptosomal membranes isolated from cerebral cortex; from tissue; host or cells: rat cerebral cortex, crude synaptosomal membranes
- Sequence (P19327 whole entry): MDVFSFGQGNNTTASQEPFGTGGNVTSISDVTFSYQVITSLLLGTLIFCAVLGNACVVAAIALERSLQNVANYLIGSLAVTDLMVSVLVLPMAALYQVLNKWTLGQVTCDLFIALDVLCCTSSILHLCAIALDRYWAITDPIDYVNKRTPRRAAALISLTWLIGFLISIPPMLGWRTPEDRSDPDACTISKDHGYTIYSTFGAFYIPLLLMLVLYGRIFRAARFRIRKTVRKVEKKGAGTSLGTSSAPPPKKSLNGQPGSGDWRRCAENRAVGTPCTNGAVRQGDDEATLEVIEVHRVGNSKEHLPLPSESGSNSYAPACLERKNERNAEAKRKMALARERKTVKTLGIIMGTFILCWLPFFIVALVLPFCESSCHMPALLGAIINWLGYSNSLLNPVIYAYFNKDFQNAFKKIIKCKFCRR
- METHOD SUMMARY: In vitro binding to 5HT1A receptors (inhibition of 3H-8-OH-DPAT binding, rat cerebral cortex synaptosomal membranes)
- Set-up: species or system rat (male Sprague-Dawley)
- REPORTED CONDITIONS: inhibition of 3H-8-OH-DPAT binding, rat cerebral cortex; read-out: Radioligand binding data (IC50, nM) 5-HT1a

Query (compound): Br.CCCN(CCC)C1CCc2cccc(-c3oncc3OC)c2C1 (stereo not shown) [Example 8, hydrobromide] ; field requested: IC50
1.7 nM

Query (compound): CCCN(CCC)C1CCc2cccc(-c3cc(Br)no3)c2C1.O=C(O)/C=C\C(=O)O (stereo not shown) [Example 2, maleate] ; field requested: IC50
2.5 nM

Query (compound): CCCN(CCC)C1CCc2cccc(-c3cc(C)no3)c2C1.O=C(O)/C=C\C(=O)O (stereo not shown) [Example 5, maleate] ; field requested: IC50
1.3 nM

Query (compound): CCCN(CCC)[C@@H]1CCc2cccc(-c3ccno3)c2C1.O=C(O)/C=C\C(=O)O [Example 10, maleate] ; field requested: IC50
1.4 nM
